# Test system: SK-MEL-28 melanoma
# test-protocol: NCI tumour cell line growth inhibition, 48 h
readout: TGI

Below are worked cases with known answers.
- compound: "COC(=O)C(=O)Cc1nc2ccccc2s1"
  tested-target: "SK-MEL-28 melanoma"
  TGI: "> 100 µM"
- compound: "CCOC1OC(CO)C(O)CC1n1ccc(=O)[nH]c1=O (stereo unspecified)"
  tested-target: "SK-MEL-28 melanoma"
  TGI: "> 100 µM"
- compound: "O=C1Nc2ccc(Br)cc2C12CC(c1ccccc1)=NN2 (stereo unspecified)"
  tested-target: "SK-MEL-28 melanoma"
  TGI: "> 100 µM"

(Q) Consider the compound CC(C)=CCc1cc2c(cc1O)C1=C(C(=O)C3=C(C1=O)S(=O)(=O)CCN3)C(C=C(C)C)O2 (stereo unspecified) and give its measured TGI.
(A) 1.92 µM

(Q) Try this compound next: CO/C(N)=C(\C#N)N=Cc1ccc2ccccc2c1
(A) > 100 µM

(Q) Input CCOC1=C2N=C(C(CC)c3ccccc3F)N=C2C(=O)c2ccccc21 (stereo unspecified)
(A) > 100 µM
